# System: SNB-19
# Assay Summary: NCI tumour cell line growth inhibition, 48 h
Active and inactive are the calls of the source. Cut-off read from the data, not from the text of the source: active = GI50 up to about 1.1 µM and inactive = higher.
Outcomes: active, inactive

Compound	Assigned Label
COC(=O)[C@H](Cc1ccccc1)NC(=O)c1ccc(CNC(=O)/C=C/c2cccc(Oc3ccccc3)c2)cc1	inactive
Oc1ccc(C2Oc3cc(O)cc4c3C2c2cc(O)cc3c2C(c2cc(O)cc5c2C4C(c2ccc(O)cc2)O5)C(c2ccc(O)cc2)O3)cc1 (stereo not drawn)	inactive
COC1C(O)CC(OC2CC(OC3CC(O[C@@H]4C(=O)c5c(cc6cc(OC7CC(OC8CC(O)C(O)C(C)O8)C(O)C(C)O7)c(C)c(O)c6c5O)C[C@H]4[C@H](OC)C(=O)[C@@H](O)[C@@H](C)O)OC(C)C3O)OC(C)C2O)OC1C (stereo partly drawn)	active
Cc1ccc(C(=O)O)c(/C=C2\Cc3ccc(C)cc3C2=O)c1	inactive
CC(C)(C)S(=O)OC12CC3CC(CC(C3)C1)C2 (stereo not drawn)	inactive
Cc1occc1/C(S)=N\c1ccc(Cl)c(C(=O)OCC(F)(F)F)c1	inactive
CC(C)CC(NC(=O)C(Cc1ccccc1)NC(=O)[C@H]1CC[C@H](NC(=O)C(Cc2ccc(OC(C)(C)C)cc2)NC(=O)OC(C)(C)C)C1)C(N)=O (stereo partly drawn)	inactive
CC12c3c4cccc3Oc3cc(N)cc(c31)Oc1cc(N)cc(c12)O4	inactive

----------
# Test system: A549
# Assay Summary: NCI tumour cell line growth inhibition, 48 h
The source made the active and inactive calls. Rule as the data show it: active = GI50 up to about 1.1 µM and inactive = higher.
Labels: active, inactive

> print(dat)
                                    compound  assigned.label
 1  O=C(c1ccccc1)c1ccc2[nH]c(-c3c(Cl)c(Cl)c(Cl)c(Cl)c3C(=O)N/N=C\C=C\c3ccccc3)nc2c1        inactive
 2  CSc1nsc(-c2ccccc2)[s+]1.[O-][Cl+3]([O-])([O-])[O-]        inactive
 3  CC(=O)c1c(O)nnc(-c2ccc(Cl)cc2)c1-c1ccc(Cl)cc1        inactive
 4             C/C(=N/NC(N)=S)c1ccc2ccccc2c1        inactive
 5  COC(OC)C1OC(CO)C(n2cc(C)c(=O)[nH]c2=O)C1O (stereo unspecified)        inactive
 6  CC1=CC(=O)[C@@H](O)[C@]2(C)[C@H]3[C@@]4(O)OC[C@]35[C@H]([C@@H](C)[C@H]4O)[C@@H](O)C(=O)O[C@@H]5C[C@@H]12          active
 7  CCOC(=O)C1=C(C)N(NC(=O)Nc2ccccc2)C2(N)N(NC(=O)Nc3ccccc3)C(C)=C(C(=O)OCC)C12C#N (stereo unspecified)        inactive
 8      CC(=O)Nc1c(C)ccc2c1C(=O)c1ccccc1C2=O        inactive
 9  CSc1ncc2c(n1)-c1ccccc1OC2N1CCCCC1 (stereo unspecified)        inactive
10  COC(=O)C1C(O)C(C(=O)OC)C(C)N(C)C1C (stereo unspecified)        inactive
11                   N=C(N)Nc1nc2cc(N)ccc2o1        inactive
12  Cc1cc(C)nc(NS(=O)(=O)c2ccc(NN=c3c4ccccc4n(C)c4ccccc34)cc2)n1        inactive
13  Cn1c(=O)c2c(nc3[nH]c(=O)c(Br)cn32)n(C)c1=O        inactive
14  CCOC(=O)NC(=O)c1cn(CCCOC(=O)CCCCCCCCC(=O)OCCCn2cc(C(=O)NC(=O)OCC)c(=O)n(C)c2=O)c(=O)n(C)c1=O        inactive
15  COc1ccc2c(c1)CCCN1CCc3cc(OC)c(OC)cc3C21 (stereo unspecified)        inactive
16  CC1=NN(c2ccc(S(=O)(=O)O)cc2)C2(C1)SCC(=O)N2c1nc2ccccc2s1 (stereo unspecified)        inactive
17  COc1cc(C2C(Cl)C(=O)N2c2c(C)n(C)n(-c3ccccc3)c2=O)ccc1O (stereo unspecified)        inactive
18             Cn1cc2ccccc2c1-c1nc(N)nc(F)n1        inactive
19           N#Cc1ccc(Nc2cnc3cc(N)ccc3n2)cc1        inactive
20  CC(C)(C)c1cc(C(O)(C(F)(F)F)C(F)(F)F)c2c(c1)C(C(F)(F)F)(C(F)(F)F)OC(c1ccccc1)(C(C)(C)C)N2 (stereo unspecified)        inactive
21  COc1cc(C2c3cc4c(cc3[C@@H](Nc3cccc(O)c3)C3COC(=O)[C@H]23)OCO4)cc(OC)c1O (stereo partly specified)          active
22  CCOC(=O)NC(NC(C)CC)(C(F)(F)F)C(F)(F)F (stereo unspecified)        inactive
23  CC(=O)/C(=C/NC(=S)N/N=C1\C(=O)Nc2ccccc21)C(=O)Nc1ccccc1C        inactive
24    COC(=O)C(Cc1cc(OC)c(OC)c(OC)c1)C(=O)OC        inactive
25  Cc1nc(O)nc(CC(O)(c2ccccc2)c2ccccc2)c1-c1ccccc1        inactive
26  COC(=O)/C=C/C(=O)Nc1cc(Cl)c(Cl)cc1CC(=O)N(C)[C@H]1CCCC[C@@H]1N1CCCC1        inactive
27     CCOC(=O)c1nc(SC)sc1NC(=O)c1ccc(OC)cc1        inactive
28  CCOc1cc2c(cc1O)/C(=N\OC)C[C@@H]1[C@@H]2CC[C@]2(C)[C@@H](O)CC[C@@H]12          active
29  COc1ccc(/C(=N/Nc2ccccc2)C(c2ccc(OC)cc2)C2OC(=O)c3ccccc32)cc1 (stereo unspecified)        inactive
30         Cc1ccc(/N=N/c2c(O)ccc3ccccc23)cc1        inactive
31                   COC(=O)Cc1cccc2c1CCC2=O        inactive
32  CCc1nc(N)nc(N)c1-c1ccc2c(c1)nnn2CCc1ccccc1        inactive
33  CC(C)C1CC(CO)(CNc2cc(Cl)nc(N)n2)C1 (stereo unspecified)        inactive
34  CCOC(=O)C(C(=O)OCC)=C1NC2(c3ccccc3Nc3ccc(C)cc32)C(C(=O)OC)S1 (stereo unspecified)        inactive
35  C1CSC(Sc2nc(SC3=NCCS3)nc(SC3=NCCS3)n2)=N1        inactive
36             Cc1nc(N)c(N2CCN(CN)CC2)c(O)n1        inactive
37             CCCCCCCCCCCCCP(=O)(O)NCC(N)=O        inactive
38  COC(=O)CCc1cc(OC)c2c(c1)[C@H](C(=O)OC)[C@@H](c1ccc(O)c(OC)c1)O2        inactive
39  COc1cccc2c1[C@]1(O)C(O)CCCC21 (stereo partly specified)        inactive
40  COc1cc(OC)c2c(=O)c(OC)c(-c3ccc4c(c3)OCO4)oc2c1        inactive
41  CCOC(=O)C(NC(=O)c1ccc(/N=N/N(C)C)cc1)C(C)C (stereo unspecified)        inactive

----------
# Tested on: OVCAR-5
# Assay Summary: NCI tumour cell line growth inhibition, 48 h
The source made the active and inactive calls. No stated cut-off is given here; in the data, active = GI50 up to about 1.1 µM and inactive = higher.
Outcomes: T for active, F for inactive

> print(dat)
                                    molecule  tested.on  assigned.label
 1  COC(=O)/C=C/COCC1C2CCC(=O)C21 (stereo not drawn)    OVCAR-5               F
 2    COC(=O)C(Cc1cc(OC)c(OC)c(OC)c1)C(=O)OC    OVCAR-5               F
 3             N#Cc1[nH]c(=O)n(-c2ccccc2)c1N    OVCAR-5               T
 4  O=[N+]([O-])c1cc(-c2ccc([As](=O)(O)O)cc2)ccc1[As](=O)(O)O    OVCAR-5               F
 5  CC(C)(CN1CCOCC1)C(=O)/C=C/c1ccc(/C=C/C(=O)C(C)(C)CN2CCOCC2)cc1    OVCAR-5               F
 6  CC(=O)c1c(O)nnc(-c2ccc(Cl)cc2)c1-c1ccc(Cl)cc1    OVCAR-5               F
 7  O=C1C=C(C2OC(CO)C(O)C2O)C(=O)N1 (stereo not drawn)    OVCAR-5               F
 8     CCOC(=O)c1nc(SC)sc1NC(=O)c1ccc(OC)cc1    OVCAR-5               F
 9  O=C(Nc1nc2ccccc2s1)c1cc([N+](=O)[O-])ccc1Cl    OVCAR-5               F
10  Cc1nc(O)nc(CC(O)(c2ccccc2)c2ccccc2)c1-c1ccccc1    OVCAR-5               F
11  C/C(=C\CBr)CCC(Br)C(C)(C)Br (stereo not drawn)    OVCAR-5               F
12  CNC(=O)NCCCCC(NC(=O)OCc1ccccc1)C(=O)OCc1ccccc1 (stereo not drawn)    OVCAR-5               F
13  Cc1ccc(OCC2OC(n3cnc4nc(Nc5ccc(Cl)c(Cl)c5)nc(Cl)c43)CC2Oc2ccc(C)cc2)cc1 (stereo not drawn)    OVCAR-5               F
14                          CCOCN/C(N)=N\C#N    OVCAR-5               F
15  O=C1NC(Nc2ccccc2)=NC(C(F)(F)F)(C(F)(F)F)N1    OVCAR-5               F
16  Cn1c2cc([N+](=O)[O-])ccc2c(=O)c2c(O)cc3c(c21)C=CC(C)(C)O3    OVCAR-5               F
17                   O=C(O)CCNc1ccccc1C(=O)O    OVCAR-5               F
18  O=C1C(Cl)C(c2ccc(Cl)cc2)N1n1cnc2ccccc2c1=O (stereo not drawn)    OVCAR-5               F
19  O=C1Nc2ccccc2C1=Nc1ccc(S(=O)(=O)Nc2nccs2)cc1    OVCAR-5               F
20  CC1=NN(c2nc(N)nc(C(C)Sc3cc(Cl)c(C)cc3S(N)(=O)=O)n2)C(C)(C)C1 (stereo not drawn)    OVCAR-5               F
21    CCOc1ncn(-c2ccc(NC(=S)Nc3cnccn3)cc2)n1    OVCAR-5               F
22  CC(C)C1CC(CO)(CNc2cc(Cl)nc(N)n2)C1 (stereo not drawn)    OVCAR-5               F
23  O=C1Nc2c(Cl)cc(Cl)cc2/C1=N/N=C/c1ccccc1O    OVCAR-5               F
